Molecular target: OCT1 (SLC22A1) (Homo sapiens)
Sequence (O15245 whole entry): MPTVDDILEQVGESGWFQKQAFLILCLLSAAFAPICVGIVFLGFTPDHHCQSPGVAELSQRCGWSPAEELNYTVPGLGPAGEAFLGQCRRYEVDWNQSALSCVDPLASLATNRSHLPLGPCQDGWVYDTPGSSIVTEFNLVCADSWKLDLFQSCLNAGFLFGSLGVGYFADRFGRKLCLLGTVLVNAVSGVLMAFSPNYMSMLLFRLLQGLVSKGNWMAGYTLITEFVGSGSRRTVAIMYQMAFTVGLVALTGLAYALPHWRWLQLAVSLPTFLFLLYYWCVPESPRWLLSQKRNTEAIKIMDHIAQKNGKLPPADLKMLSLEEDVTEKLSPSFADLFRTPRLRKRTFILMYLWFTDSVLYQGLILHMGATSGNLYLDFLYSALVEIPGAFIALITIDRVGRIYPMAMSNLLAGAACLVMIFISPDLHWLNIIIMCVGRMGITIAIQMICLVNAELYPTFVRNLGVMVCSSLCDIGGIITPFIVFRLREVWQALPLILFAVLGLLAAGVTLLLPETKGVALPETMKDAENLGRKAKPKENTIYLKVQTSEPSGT
Assay: Cellular uptake in human HEK293 cells assessed as human OCT1-mediated drug transport at 2.5 uM after 4 mins by LC-MS/MS analysis relative to passive uptake
Type: ADME, cell-based
Conditions: HEK293 cells expressing human OCT1, read-out: FC
Can you tell me uptake ratio at 4 min, 2.5 µM for the items I'm about to list?

Example cases with answers are listed next.
> print(dat)
                                   compound  measured
1   CNC(=C[N+](=O)[O-])NCCSCc1ccc(CN(C)C)o1        18
2  N=C(N)NC(=O)c1nc(Cl)c(N)nc1N [AMILORIDE]        76
3  NC(=O)Nc1sc(-c2ccccc2O[C@H]2CCNC2)cc1C(N)=O        26
4  C[N+]1(C)[C@@H]2C[C@@H](OC(=O)C(O)(c3cccs3)c3cccs3)C[C@H]1[C@@H]1O[C@@H]12        75

// switching to the query compound
Challenge: Which uptake ratio at 4 min, 2.5 µM value belongs to `[H]/N=C(/N)N/C(=N/[H])NCCc1ccccc1` ?
Response given: > 39
